Measured residual activity accompanies every entry in the list below.
Measured On: UniProt Q12851
Sequence (Q12851 whole entry, looked up): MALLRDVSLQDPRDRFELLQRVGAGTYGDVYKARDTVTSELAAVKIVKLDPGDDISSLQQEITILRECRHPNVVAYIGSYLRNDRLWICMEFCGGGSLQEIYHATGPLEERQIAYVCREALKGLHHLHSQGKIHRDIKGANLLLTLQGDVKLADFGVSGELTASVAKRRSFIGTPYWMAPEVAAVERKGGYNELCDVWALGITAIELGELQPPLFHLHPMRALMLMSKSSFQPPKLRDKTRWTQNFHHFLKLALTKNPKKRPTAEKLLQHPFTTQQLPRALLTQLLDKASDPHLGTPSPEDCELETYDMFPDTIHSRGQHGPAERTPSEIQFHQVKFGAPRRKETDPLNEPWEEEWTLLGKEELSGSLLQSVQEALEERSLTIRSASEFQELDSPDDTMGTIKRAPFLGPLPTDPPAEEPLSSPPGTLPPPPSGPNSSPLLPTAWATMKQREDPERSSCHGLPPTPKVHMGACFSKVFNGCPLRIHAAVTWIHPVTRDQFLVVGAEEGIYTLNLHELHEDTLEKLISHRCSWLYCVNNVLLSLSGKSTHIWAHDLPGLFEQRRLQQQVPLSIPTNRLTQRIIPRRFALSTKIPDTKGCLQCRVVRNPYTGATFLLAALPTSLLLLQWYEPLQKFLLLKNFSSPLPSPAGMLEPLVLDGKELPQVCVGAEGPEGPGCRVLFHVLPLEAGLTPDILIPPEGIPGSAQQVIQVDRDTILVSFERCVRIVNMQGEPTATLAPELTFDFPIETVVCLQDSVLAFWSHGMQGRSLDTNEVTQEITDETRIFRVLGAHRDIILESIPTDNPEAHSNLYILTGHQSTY
Test Summary: radiometric filter-binding kinase assay, Kinase HotSpot
Protocol Conditions: compound 0.5 µM; ATP 10 µM
The reply should contain only the number, in %.

Exercise: Please state recorded residual activity (tested on UniProt Q12851) of "COc1ccc(COc2ccc(Cc3cnc(N)nc3N)cc2OC)cc1"
Solution: 120

Exercise: Try this compound too: "Cc1[nH]c(/C=C2\C(=O)Nc3ccc(S(=O)(=O)N(C)c4cccc(Cl)c4)cc32)c(C)c1C(=O)N1CCN(C)CC1"
Solution: 53.5

Exercise: And the next one, "CCOC(=O)c1c(C)[nH]c(/C=C2\C(=O)Nc3ccccc32)c1C" ?
Solution: 95.5

Exercise: Next compound: "O=C1NC(=O)c2c1c1c3ccccc3n3c1c1c2c2ccccc2n1C1CCC3O1"
Solution: 3.75

Exercise: Follow-up entry: "N#CC(C#N)=C(N)/C(C#N)=C/c1ccc(O)cc1"
Solution: 100
